- target.under.test: Proline racemase (Clostridium sticklandii, UniProt Q9L4Q3)
- Sequence (Q9L4Q3 whole entry): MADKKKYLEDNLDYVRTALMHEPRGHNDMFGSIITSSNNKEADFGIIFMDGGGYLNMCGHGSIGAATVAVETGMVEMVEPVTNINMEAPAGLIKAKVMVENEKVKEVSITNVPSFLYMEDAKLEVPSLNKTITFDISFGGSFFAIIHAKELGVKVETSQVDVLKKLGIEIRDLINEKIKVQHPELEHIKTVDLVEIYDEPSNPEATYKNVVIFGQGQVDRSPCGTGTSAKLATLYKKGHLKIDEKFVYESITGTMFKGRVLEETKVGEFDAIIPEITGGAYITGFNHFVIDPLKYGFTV
reported.metric: IC50

- chem.smiles: "O=C(O)C12CCCN1CCC2"
  reported.metric: "IC50"
  experimental.value: "67 mM"

====

- target.under.test: Serine racemase (Schizosaccharomyces pombe (strain 972 / ATCC 24843) (Fission yeast))
- experimental.details: Mixed type inhibition of N-terminal 6xHis-tagged recombinant Schizosaccharomyces pombe 972 serine racemase expressed in Escherichia coli BL21(DE3) using L-serine as substrate assessed as enzyme-inhibitor complex preincubated for 2 mins followed by substrate addition by double reciprocal plot analysis
pKi: −log10 of the molar value.
reported.metric: pKi

- chem.smiles: "NC(CO)(CO)C(=O)O"
  experimental.value: 0.78

====

- target.under.test: Serine racemase (Schizosaccharomyces pombe (strain 972 / ATCC 24843) (Fission yeast), UniProt O59791)
- Sequence (O59791 whole entry): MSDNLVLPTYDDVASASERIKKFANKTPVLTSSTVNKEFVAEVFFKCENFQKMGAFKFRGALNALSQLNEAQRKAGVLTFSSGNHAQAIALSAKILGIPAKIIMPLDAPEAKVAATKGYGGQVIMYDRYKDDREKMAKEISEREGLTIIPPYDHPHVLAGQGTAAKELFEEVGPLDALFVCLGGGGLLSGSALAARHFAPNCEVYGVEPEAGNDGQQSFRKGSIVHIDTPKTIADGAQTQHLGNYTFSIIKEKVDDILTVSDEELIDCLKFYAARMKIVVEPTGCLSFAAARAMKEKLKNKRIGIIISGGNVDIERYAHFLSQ
- experimental.details: Mixed type inhibition of N-terminal 6xHis-tagged recombinant Schizosaccharomyces pombe 972 serine racemase expressed in Escherichia coli BL21(DE3) using L-serine as substrate assessed as enzyme-substrate-inhibitor complex preincubated for 2 mins followed by substrate addition by double reciprocal plot analysis

- chem.smiles: "NC(CO)(CO)C(=O)O"
  Ki / mM: 661

====

- target.under.test: UniProt:Q9L4Q3
- experimental.details: Noncompetitive inhibition of N-terminal 6xHis-tagged Clostridium sticklandii ATCC 12662 proline racemase expressed in Escherichia coli BL21(DE3) using L/D-proline as substrate preincubated for 5 mins by Cornish-Bowden plot analysis
- Design: species or system Acetoanaerobium sticklandii
reported.metric: Ki (mM)

- chem.smiles: "O=C(O)C12CCCN1CCC2"
  experimental.value: 111

Ref: ChEMBL document CHEMBL3098053
